Here the recorded shrunken log2 fold change is given for each entry.
# Test system: Escherichia coli TOP10;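 also: peptides expressed intracellularly from a pBAD plasmid library in pooled LB shake-flask culture, induced with 0.3% L-arabinose, DNA abundance read by NGS, three biological replicates, DESeq2 with apeglm shrinkage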
# protocol_summary: shrunken log2 fold change of peptide-encoding DNA abundance (4.5 h post-induction vs induction); higher = less antimicrobial activity (less host growth inhibition)
# cond: time post-induction: 4.5 h; library: site-saturation at positions 5, 18, 19, 20
Please state the value as a number alone, without comment.

Take a look at these entries with their results.
{"biosequence": "RRIRERPPRLPRPRPRPNYIPRP", "shrunken log2 fold change": -0.672}
{"biosequence": "RRIRHRPPRLPRPRPRPQRSPRP", "shrunken log2 fold change": 0.0449}
{"biosequence": "RRIRKRPPRLPRPRPRPSLSPRP", "shrunken log2 fold change": 0.549}
{"biosequence": "RRIRGRPPRLPRPRPRPVRKPRP", "shrunken log2 fold change": 1.72}
{"biosequence": "RRIRKRPPRLPRPRPRPMPYPRP", "shrunken log2 fold change": -0.0398}

**Query** Entry under review: "RRIRYRPPRLPRPRPRPRVIPRP" . Reported shrunken log2 fold change?
**Result** -0.0396

**Query** Entry under review: "RRIRWRPPRLPRPRPRPCIIPRP" . Reported shrunken log2 fold change?
**Result** -0.222
